- System: 521955-158-R2-J5-PDC complex spheroids, viability;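 also: spheroids also contain HUVEC endothelial cells and mesenchymal stem cells as stroma; compound exposure lasted seven days before the viability read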
- Assay overview: Anticancer human tumor 521955-158-R2-J5-PDC patient-derived pancreatic carcinoma cell line growth inhibition [RAS]
- Reported conditions: second compound 1 µM; first compound 1 µM; stronger effect = lower value
Note to self: use yes only for viability, T/C readings below 20%; a reading exactly at 20% still gets no.

| Compound | Class assignment |
| --- | --- |
| CC(Nc1ccc2c(c1)OCCn1cc(N3C(=O)OCC3C(F)F)nc1-2)C(N)=O (stereo not given) + C#Cc1c(F)ccc2cc(O)cc(-c3ncc4c(N5CC6CCC(C5)N6)nc(OCC56CCCN5CC(F)C6)nc4c3F)c12 | yes |

Here is the next item to consider.
Task: Lab note: viability, T/C threshold 20%. Does this compound come in strictly under it? C=CC(=O)N1CCN(c2nc(OCC3CCCN3C)nc3c(F)c(-c4nc(N)cc(C)c4C(F)(F)F)c(Cl)cc23)C(C)C1 (stereo not given) + C#Cc1c(F)ccc2cc(O)cc(-c3ncc4c(N5CC6CCC(C5)N6)nc(OCC56CCCN5CC(F)C6)nc4c3F)c12
Output: no
